assay-target: pre-pro-insulin glargine
desArg reference
readout: desArg

- trypsin variant SEQ ID NO: 89 (protein) IVGGYTCAANSIPYQVSLNSGSHRCGGSLINSQWVVSAAHCYKPRIQVRLGEHNIHVLEGNEQFINAAKIITHPNFNPNTLDNDIMLIKLSSPATLNSHVATVSLPTSCAAAGTECLISGWGNTASSGSSMPSLLQCLKAPVLSDSSCKSSYPGQITGNMICVGFLEGGKDACQGDSGGPVVCNGQLQGIVSSGYGCAQKNKPGVYTKVCNYVNWIQQTIAAN: 0.5 area %
- trypsin variant SEQ ID NO: 11 (protein) IVGGYTCAANSIPYQVSLNSGSHRCGGSLINSQWVVSAAHCYKSRIQVRLGEHNIDVLEGNEQFINAAKIITHPNFNGNTLDNDIMLIKLSSPATLNSNVATVSLPRSCAAAGTECLISGWGNTKSSGSSYPSLLQCLKAPVLSDSSCKSSYPGQITGNMICVGFLEGGKDACQGDSGGPVVCNGQLQGIVSSGYGCAQKNKPGVYTKVCNYVNWIQQTIAAN: < 0.5 area %
- trypsin variant SEQ ID NO: 117 (protein) IVGGYTCAANSIPYQVSLNSGSHRCGGSLINSQWVVSAAHCYKPRIQVRLGEHNIHVLEGNEQFINAAKIITHPNFNGNTLDNDIMLIKLSSPATLNSNVATVSLPTSCAAAGTECLISGWGNTASSGSSMPSLLQCLKAPVLSDSSCKSSYPGQITGNMICVGFLEGGKDACQGDSGGPVVCNGQLQGIVSSGYGCAQKNKPGVYTKVCNYVNWIQQTIAAN: 0.6 area %
